In this section we review reported composite z-score values for a set of compounds.
Test system: Chordin-like protein 2 (CHRDL2)
EXPERIMENTAL_DETAILS: CHRDL2 small-molecule binders, primary screen, biochemical, small-molecule microarray, 635 nm fluorescence (AID 1126);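 further: printed compound slides probed with Chrdl2 protein at 4 µg/mL for 1 h at 4 C; score merges 667 nm emission intensity with signal to noise over three replicate slides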
CONDITION_PARAMETERS: small-molecule microarray binding, fluorescence 635 nm; higher = more signal
When you answer, write just the number.

For orientation, consider the following solved cases.
Req: For the compound C=C(C)C(=O)OCC1CN2[C@@H](CC[C@@H](C)[C@@H]2c2ccc(Br)cc2)C(=O)O1 (stereo partly drawn) , give its measured composite z-score value.
Resp: 0.691

Req: For the compound CCOC(=O)[C@H](Cc1ccccc1)NC(=O)CCC1CC(OC(=O)NCc2cccc3ccccc23)CC2(CCCC(COC(=O)NCC(c3ccccc3)c3ccccc3)O2)O1 (stereo partly drawn) , give its measured composite z-score value.
Resp: 0.203

# ---- query compound ----
Req: For the compound Cc1cc2c(c(=O)o1)[C@@H](O)[C@H]1O[C@H]1C2=O , give its measured composite z-score value.
Resp: 0.705

* * *

TARGET_OF_ASSAY: Neurogenic locus notch homolog protein 3 (Homo sapiens) (UniProt Q9UM47)
Sequence (Q9UM47 whole entry, looked up): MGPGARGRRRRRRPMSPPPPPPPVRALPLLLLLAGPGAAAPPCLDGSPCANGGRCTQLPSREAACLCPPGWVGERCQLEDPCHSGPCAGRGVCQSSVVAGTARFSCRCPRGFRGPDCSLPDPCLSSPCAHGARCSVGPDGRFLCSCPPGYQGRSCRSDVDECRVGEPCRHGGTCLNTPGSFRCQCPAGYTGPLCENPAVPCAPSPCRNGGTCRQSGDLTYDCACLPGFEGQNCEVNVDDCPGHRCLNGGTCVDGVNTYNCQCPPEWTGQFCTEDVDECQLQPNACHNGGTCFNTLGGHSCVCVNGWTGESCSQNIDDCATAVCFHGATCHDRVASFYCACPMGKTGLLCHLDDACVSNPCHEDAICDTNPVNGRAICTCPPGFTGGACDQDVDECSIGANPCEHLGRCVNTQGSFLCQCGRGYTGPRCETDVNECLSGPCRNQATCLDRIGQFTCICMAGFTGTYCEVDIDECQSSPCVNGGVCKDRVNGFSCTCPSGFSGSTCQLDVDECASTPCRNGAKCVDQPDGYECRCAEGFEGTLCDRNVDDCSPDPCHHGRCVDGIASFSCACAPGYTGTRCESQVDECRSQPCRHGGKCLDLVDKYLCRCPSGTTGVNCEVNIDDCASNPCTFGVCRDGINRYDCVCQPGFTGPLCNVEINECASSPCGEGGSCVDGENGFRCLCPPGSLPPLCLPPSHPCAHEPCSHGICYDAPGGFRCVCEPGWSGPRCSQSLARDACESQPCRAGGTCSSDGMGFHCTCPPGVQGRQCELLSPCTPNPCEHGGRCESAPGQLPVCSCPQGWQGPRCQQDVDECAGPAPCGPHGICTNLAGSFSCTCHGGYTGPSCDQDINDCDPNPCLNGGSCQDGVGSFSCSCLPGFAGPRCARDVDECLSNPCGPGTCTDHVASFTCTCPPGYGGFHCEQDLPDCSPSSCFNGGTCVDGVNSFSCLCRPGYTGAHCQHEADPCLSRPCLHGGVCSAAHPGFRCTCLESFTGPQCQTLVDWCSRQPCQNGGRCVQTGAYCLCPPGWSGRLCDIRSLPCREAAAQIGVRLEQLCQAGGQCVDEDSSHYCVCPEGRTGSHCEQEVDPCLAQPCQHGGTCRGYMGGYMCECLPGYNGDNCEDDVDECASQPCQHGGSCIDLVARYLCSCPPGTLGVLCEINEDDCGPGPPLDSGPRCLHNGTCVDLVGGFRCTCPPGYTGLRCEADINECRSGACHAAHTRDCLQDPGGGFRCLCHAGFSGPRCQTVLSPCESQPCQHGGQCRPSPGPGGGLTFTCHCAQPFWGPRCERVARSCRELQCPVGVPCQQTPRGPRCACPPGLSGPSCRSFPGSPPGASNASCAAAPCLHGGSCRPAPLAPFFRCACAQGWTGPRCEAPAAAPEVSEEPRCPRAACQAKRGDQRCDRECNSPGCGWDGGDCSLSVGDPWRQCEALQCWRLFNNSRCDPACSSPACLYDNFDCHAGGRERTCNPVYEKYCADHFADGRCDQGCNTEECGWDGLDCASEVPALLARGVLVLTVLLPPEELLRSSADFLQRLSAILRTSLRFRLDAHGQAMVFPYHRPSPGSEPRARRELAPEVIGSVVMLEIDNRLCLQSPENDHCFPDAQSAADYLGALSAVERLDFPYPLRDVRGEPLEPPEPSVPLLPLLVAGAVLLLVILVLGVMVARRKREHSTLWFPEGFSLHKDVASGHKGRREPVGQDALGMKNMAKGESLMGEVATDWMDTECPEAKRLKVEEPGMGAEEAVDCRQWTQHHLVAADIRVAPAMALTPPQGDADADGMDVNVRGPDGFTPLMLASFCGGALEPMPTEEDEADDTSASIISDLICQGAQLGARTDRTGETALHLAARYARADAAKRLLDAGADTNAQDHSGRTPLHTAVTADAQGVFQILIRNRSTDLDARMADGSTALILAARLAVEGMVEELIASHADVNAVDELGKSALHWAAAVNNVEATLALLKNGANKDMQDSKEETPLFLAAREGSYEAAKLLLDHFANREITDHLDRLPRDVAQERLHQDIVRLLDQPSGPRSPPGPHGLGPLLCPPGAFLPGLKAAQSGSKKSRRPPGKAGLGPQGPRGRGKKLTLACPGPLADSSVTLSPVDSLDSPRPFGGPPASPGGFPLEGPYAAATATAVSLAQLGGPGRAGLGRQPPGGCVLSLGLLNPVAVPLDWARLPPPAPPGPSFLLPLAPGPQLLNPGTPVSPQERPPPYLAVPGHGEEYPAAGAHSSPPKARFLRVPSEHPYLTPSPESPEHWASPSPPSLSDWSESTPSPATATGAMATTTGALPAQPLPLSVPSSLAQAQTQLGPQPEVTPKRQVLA
EXPERIMENTAL_DETAILS: NOTCH3 binders on small-molecule microarray, primary screen, biochemical, 635/667 nm fluorescence (AID 1096)
CONDITION_PARAMETERS: NOTCH3 binding, 635 nm fluorescence, higher = more signal
OBSERVABLE: composite z-score

For orientation, consider the following solved cases.
Req: For the compound COc1cccc([C@H]2Oc3ccc(OC)cc3C(=NO[C@@H]3O[C@H](COC(C)=O)[C@@H](OC(C)=O)[C@H](OC(C)=O)[C@H]3OC(C)=O)[C@@H]2O)c1 , give its measured composite z-score value.
Resp: 0.615

Req: For the compound O=C1C=C[C@@H](O)[C@@H]2[C@@H]3C(=O)N(C[C@@H]4CCCO4)C(=O)[C@@H]3CC[C@@H]12 , give its measured composite z-score value.
Resp: 0.541

Req: For the compound CCOC(=O)[C@H](Cc1ccccc1)NC(=O)CCC1CC(OC(=O)NCc2cccc3ccccc23)CC2(CCCC(COC(=O)NCc3cccc(C(F)(F)F)c3)O2)O1 (some centres undefined) , give its measured composite z-score value.
Resp: 0.212

New cases:
Req: For the compound CC(CCN1CCCc2nc(C)c(C)cc21)=NO[C@@H](C)c1cc(-c2c(C)cc(C)cc2C)no1 , give its measured composite z-score value.
Resp: 0.635

* * *

Tested on: XIP peptide (Xip251-270)
EXPERIMENTAL_DETAILS: small-molecule binders of XIP peptide, primary screen, biochemical, small-molecule microarray, fluorescence 635/667 nm, 0.5 µg/mL protein (AID 1183)
CONDITION_PARAMETERS: small-molecule microarray binding, fluorescence 635 nm; higher = more signal
OBSERVABLE: composite z-score
When you answer, write just the number.

For orientation, consider the following solved cases.
Req: For the compound CO[C@@H]1COC(=O)[C@H](CCSC)NC(=O)CC=C[C@@H](C)COC(=O)[C@H](C)NC(=O)CC=C[C@H]1C , give its measured composite z-score value.
Resp: 0.909

Req: For the compound CC(C)CON=C1C[C@@H](O)[C@@H](O)[C@@H]2[C@@H]3C(=O)N(C[C@@H]4CCCO4)C(=O)[C@@H]3CC[C@@H]12 , give its measured composite z-score value.
Resp: 0.205

Req: For the compound O=C(NN=C1C[C@@H](O)[C@@H](O)[C@@H]2[C@@H]3C(=O)N(C4CCCCC4)C(=O)[C@@H]3CC[C@H]12)OCc1ccccc1 , give its measured composite z-score value.
Resp: 0.109

Req: For the compound C=CC[C@@H]1C=C[C@H](ON=C(C)CCN2CCc3nc(-c4ccccc4)c(-c4ccccc4)cc3C2)[C@@H](CO)O1 , give its measured composite z-score value.
Resp: 0.58

New cases:
Req: For the compound C=CC[C@@H]1C=C[C@H](ON=C2[C@H]3CCn4c(=O)n(-c5ccccc5)c(=O)n4[C@H]3[C@H](O)[C@@H]3O[C@H]23)[C@@H](CO)O1 , give its measured composite z-score value.
Resp: 0.287

Req: For the compound COc1ccc(COC(=O)NN=C2C[C@@H](O)[C@@H](O)[C@@H]3[C@@H]4C(=O)N(c5ccc(F)cc5F)C(=O)[C@@H]4CC[C@H]23)cc1 , give its measured composite z-score value.
Resp: 0.393

* * *

EXPERIMENTAL_DETAILS: P. aeruginosa biofilm formation inhibitors, primary screen, PAO1 strain, BacTiter-Glo luminescence, LB-PBS (AID 1144)
CONDITION_PARAMETERS: 12 h, higher = more signal
Binned z-score; ranges: low (below -0.7), mid (-0.7 to below 0.05), high (0.05 or more)

Some entries whose results are on file:
Req: Hello team, could you let me know which band the following compound falls into: COC(=O)CC=C[C@@H](C)[C@@H](C=NO[C@@H](C)c1cc(-c2c(C)cc(C)cc2C)no1)NS(=O)(=O)c1ccc(C)cc1
Resp: high

Req: Hello team, could you let me know which band the following compound falls into: Cn1c(=O)n2n(c1=O)[C@H]1[C@H](O)[C@@H]3O[C@@H]3C(=NOCc3ccccc3)[C@H]1CC2
Resp: mid

Req: Hello team, could you let me know which band the following compound falls into: Cc1ccc(S(=O)(=O)N[C@H]2COC(=O)CC=C[C@@H](C)COC(=O)CC=C[C@@H]2C)cc1
Resp: low

Req: Hello team, could you let me know which band the following compound falls into: CCc1cc2c(nc1CC)CCN(CCC(C)=NOC[C@H]1O[C@H](c3ccccc3)C=C[C@@H]1Oc1ccc(OC)cc1)C2
Resp: low

Req: Hello team, could you let me know which band the following compound falls into: CC(C)CON=C1C[C@@H](O)[C@@H](O)[C@@H]2[C@@H]3C(=O)N(Cc4ccc5c(c4)OCO5)C(=O)[C@@H]3CC[C@H]12
Resp: high

Next compound, please.
Req: Hello team, could you let me know which band the following compound falls into: COC(=O)CC=C[C@@H](C)[C@@H](C=NO[C@@H]1O[C@H](COC(C)=O)[C@@H](OC(C)=O)[C@H](OC(C)=O)[C@H]1OC(C)=O)OC
Resp: low

* * *

In this section we review reported composite z-score values for a set of compounds.
EXPERIMENTAL_DETAILS: small-molecule microarray binders of probe aLefty2, primary screen, biochemical, biotinylated probe, 635/667 nm fluorescence (AID 1094);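 further: score merges spot fluorescence near 667 nm with spot signal-to-noise ratio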
CONDITION_PARAMETERS: higher = more signal
When you answer, write just the number.

Req: For the compound C=CC[C@@H]1C=C[C@H](ON=C(C)CCC(=O)OC[C@H]2O[C@H](C#Cc3ccccc3)C=C[C@@H]2Oc2ccc(C)cc2)[C@@H](CO)O1 , give its measured composite z-score value.
Resp: -0.116

Req: For the compound CC(CCN1CCCCc2nc(C)c(C)cc21)=NOC[C@@H](O)COCc1ccco1 , give its measured composite z-score value.
Resp: -0.0042

Req: For the compound Cc1ccc(S(=O)(=O)N[C@@H]2COC(=O)[C@@H](C)COC(=O)CC=C[C@H]2C)cc1 , give its measured composite z-score value.
Resp: -0.183

New cases:
Req: For the compound CCOC(=O)[C@H](CC(C)C)NC(=O)CCC1CC(OC(=O)NCc2cccc3ccccc23)CC2(CCCC(COC(=O)NCc3cccc(C(F)(F)F)c3)O2)O1 (stereo not given in full) , give its measured composite z-score value.
Resp: -0.251

Req: For the compound CO[C@H]1COC(=O)CCC[C@@H](C)[C@H](OC)COC(=O)[C@@H]2CCCN2C(=O)CC=C[C@@H]1C , give its measured composite z-score value.
Resp: -0.183

* * *

Test system: Human papillomavirus type 1a protein E7 (residues 44-93)
EXPERIMENTAL_DETAILS: HPV1a E7 fragment binders on microarrays, primary screen, biochemical, small-molecule microarray, residues 44-93, 635 nm fluorescence (AID 1108);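 further: E7 fragment applied at 1 µg/mL in TBST for 1 h at 4 C; score combines spot fluorescence with its signal to noise ratio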
CONDITION_PARAMETERS: small-molecule microarray binding, fluorescence 635 nm; higher = more signal
OBSERVABLE: composite z-score
When you answer, write just the number.

For orientation, consider the following solved cases.
Req: For the compound CO[C@H]1COC(=O)[C@@H](C)COC(=O)[C@H](COCc2ccccc2)NC(=O)CC=C[C@H]1C , give its measured composite z-score value.
Resp: -1.39

Req: For the compound C[C@@H](c1ccccc1)N1C(=O)[C@H]2[C@H]3[C@H](O)[C@H](O)CC(=NOCc4ccccc4)[C@H]3CC[C@H]2C1=O , give its measured composite z-score value.
Resp: 1.43

Req: For the compound O=C1C2=CC[C@H]3C(=O)N(c4cccc(Oc5ccccc5)c4)C(=O)[C@H]3[C@H]2[C@H](O)[C@@H]2O[C@H]12 , give its measured composite z-score value.
Resp: 0.792

Req: For the compound CSCC[C@@H]1NC(=O)CC=C[C@@H](C)COC(=O)[C@@H](C)COC1=O , give its measured composite z-score value.
Resp: -2.17

Req: For the compound CCOC(=O)[C@H](Cc1ccccc1)NC(=O)CCC1CC(OC(=O)NCCc2ccc(F)cc2)CC2(CCCC(COC(=O)NCc3ccccc3)O2)O1 (stereo partly drawn) , give its measured composite z-score value.
Resp: 1.29

New cases:
Req: For the compound O=C1CCCC(C2=CCCCC2=O)C1 (stereo not drawn) , give its measured composite z-score value.
Resp: -0.281

Req: For the compound COC(=O)[C@@H]1CC[C@H](C)[C@@H](c2ccc(C)cc2)N1C(=O)c1ccc(C=NO[C@H](C)c2cn([C@@H]3COC[C@H]3O)nn2)cc1 , give its measured composite z-score value.
Resp: 1.33

Req: For the compound CCN1C(=O)[C@H]2[C@H]3[C@H](O)[C@H](O)CC(=O)[C@@H]3CC[C@H]2C1=O , give its measured composite z-score value.
Resp: 0.869

Ref: PubChem BioAssay
